assay.system: Nuclear receptor ROR-alpha (Homo sapiens)
assay.notes: suppression of basal RORA-driven reporter transcription – cell-based, luminescence, primary screen (AID 561);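 also: 0% = RORA-transfected cells with DMSO and 100% = mock-transfected cells lacking RORA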
test.context: CHO-K1 Gal4-RORA LBD luciferase reporter, at 10 µM, active compounds read high
In all, about 65,000 compounds went through this assay and about 280 (0.43%) were called active. The sample as a whole holds a higher share of actives than the screen did.
inhibition values, listed per item
Your answer is read as %, so omit the unit and give the number.

Example entries begin here.
Query (compound): O=c1c2ccccc2oc2nc(C3CCCCC3)n(Cc3ccco3)c(=O)c12 ; field requested: inhibition
2.7

Query (compound): COc1ccc(Nc2oc(-c3ccccc3Cl)nc2C#N)cc1 ; field requested: inhibition
-98.6

Query (compound): CC(=O)Nc1ccc(-c2nn3c(C)nnc3s2)cc1C ; field requested: inhibition
10.7

Query (compound): CC(C)(C)c1ccc(C(=O)CSc2ncn[nH]2)cc1 ; field requested: inhibition
-54.2

Now for a further compound.
Query (compound): O=c1[nH]c(-c2ccccc2)c(-c2ccccc2)[nH]1 ; field requested: inhibition
23.5
